METHOD_SUMMARY: Stability in Simulated Intestinal Fluid (SIF)
Format: in vitro ADME
Parameters: key: % parent compound remaining relative to 0-minute sample
CONDITIONS_USED: % remaining at 1 h in simulated intestinal fluid
VALUE_KIND: SIF (% remaining)
The response must be a number in % remaining with no trailing unit.

CC(C)OCCn1c(=S)n(COC(=O)C2CCN(C(=O)OC(C)(C)C)CC2)c(=O)c2c1ccn2COC(=O)CCC(=O)OC(C)(C)C 71
CC(C)OCCn1c(=S)[nH]c(=O)c2c1ccn2COC(=O)CCCCNC(=O)[C@@H]1CCCN1C(N)=O.O=C(O)C(F)(F)F 94
CC[C@H](C)[C@H](NC(=O)OC(C)(C)C)C(=O)NCCC(=O)OCn1ccc2c1c(=O)[nH]c(=S)n2CCOC(C)C 90
CC(C)OCCn1c(=S)[nH]c(=O)c2c1ccn2COC(=O)CCCCNC(=O)[C@@H](N)CO.O=C(O)C(F)(F)F 87
CC(C)C[C@H](NC(=O)OC(C)(C)C)C(=O)NCCC(=O)OCn1ccc2c1c(=O)[nH]c(=S)n2CCOC(C)C 61

Now turn to the next compound.
Supply reported SIF belonging to this compound: "CSCC[C@H](NC(=O)OC(C)(C)C)C(=O)NCCCCC(=O)OCn1ccc2c1c(=O)[nH]c(=S)n2CCOC(C)C"
75
